Source: patent US20240207432A1

tested_target: T1, cynomolgus TROP2-his protein (cynomolgus monkey, UniProt P09758 27-272 (human entry), limits assumed)
T1 construct: no cleavage site is stated; also called Cynomolgus monkey TROP2-his protein; monkey TROP2
T1 chain: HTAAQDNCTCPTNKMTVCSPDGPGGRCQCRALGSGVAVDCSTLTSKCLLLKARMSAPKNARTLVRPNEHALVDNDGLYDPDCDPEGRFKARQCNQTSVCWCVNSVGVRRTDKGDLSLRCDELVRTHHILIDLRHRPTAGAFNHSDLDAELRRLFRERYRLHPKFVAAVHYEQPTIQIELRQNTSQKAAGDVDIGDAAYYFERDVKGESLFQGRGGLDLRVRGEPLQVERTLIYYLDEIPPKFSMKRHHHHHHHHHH
assay_protocol: indirect ELISA, cynomolgus TROP2-his coated, OD(450-630)

binder	EC50, nM
benchmark (in house prepared sacituzumab) (antibody, human IgG1, kappa, V domains shown, also called BM; BM1) VH: SVQLQQSGSELKKPGASVKVSCKASGYTFTNYGMNWVKQAPGQGLKWMGWINTYTGEPTYTDDFKGRFAFSLDTSVSTAYLQISSLKADDTAVYFCARGGFGSSYWYFDVWGQGSLVTVSS VL: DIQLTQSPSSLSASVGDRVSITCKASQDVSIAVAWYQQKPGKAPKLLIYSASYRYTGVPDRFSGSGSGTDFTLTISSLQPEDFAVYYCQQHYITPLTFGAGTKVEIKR	0.191
mouse antibody C1B3B12D2 (antibody, V domains shown, Mouse monoclonal IgG purified from hybridoma supernatant) VH: QVQLQQSGPELVRPGTSVKMSCKAAGYTFTKFWIGWVKQRPGHGLEWIGNIYPGGAYINYNENFKGKATLTADTFSSTAYMQLNSLTSADSAIYYCAREGSSGYWGQGTTLTVSS VL: DIVMTQSPSSLTVTAGEKVTLSCKCSQSLLNSGTQENYLTWYQQKPGQPPKMLIYWASIREPGVPDRFTGSGSGTDFTLTINNVQAEDLAVYYCQHDYSYPFTFGSGTKLEIK	0.0849
chimeric C1B3B12D2 (antibody, human IgG1, kappa, V domains shown) VH: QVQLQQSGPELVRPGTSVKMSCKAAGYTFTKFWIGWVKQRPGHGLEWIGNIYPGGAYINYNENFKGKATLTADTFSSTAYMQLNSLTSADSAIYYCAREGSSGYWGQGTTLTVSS VL: DIVMTQSPSSLTVTAGEKVTLSCKCSQSLLNSGTQENYLTWYQQKPGQPPKMLIYWASIREPGVPDRFTGSGSGTDFTLTINNVQAEDLAVYYCQHDYSYPFTFGSGTKLEIKR	0.26
mouse antibody A1E4F7D4 (antibody, V domains shown, Mouse monoclonal IgG purified from hybridoma supernatant; also called Mouse A1E4F7D4) VH: QVQLQQSGAELAKPGTSVKMSCEASGYSFTTHWIHWMKQRPGQGLEWIGTIFPSNAYAVYNQKFRDRAIMTADRSSTTAYIQLTGLTSEDSAVYYCARASYFDYWGQGTTLTVSS VL: DILLTQSPATLSVSPGERVTFSCRASQNIGTSIHWFQQRTTGSPRLLIKYASESISGIPSRFSGSGSGTDFTLHINSVESEDIAHYYCQHSHSWPFTFGSGTKLEIQ	0.177
